Target: TRKA (Homo sapiens (Human))
Assay: Isolated TRK enzyme assay (HTRF KinEASE-TK), PV3144 TrkA enzyme assay
Conditions: arithmetic mean where more than one reading
Method: Isolated TRK Enzyme assays use the HTRF KinEASE-TK kit (Cisbio Cat#62TK0PEJ) with recombinant His-tagged cytoplasmic domains of each TRK receptor sourced from Invitrogen (see table below). […] After the Detection Reagent addition, plates are covered and incubated at room temperature for 60 minutes. HTRF signal is read using an Envision reader, measured as a ratio of emissions at two different wavelengths, 620 nm and 665 nm. […] Where more than one reading was taken, the arithmetic mean is presented.
VALUE_KIND: IC50 (nM)

# annotated cases, reported IC50 shown
CC(CO)n1cc(C(=O)c2cncc(NC(=O)Cc3ccc(C(F)(F)F)cc3)c2)c2cncc(F)c21 (single isomer, unassigned) [Example 224] :: 15.4
CC(C)n1cc(C(=O)c2cc(NC(=O)Cn3ccc(C4CC4)n3)ccn2)c2cnccc21 :: 106

(A) Cc1cn(CC(=O)Nc2cc(C(=O)c3cn(C(C)C)c4ccncc34)ccn2)nn1
(B) CC(C)n1cc(C(=O)c2cncc(NC(=O)Cn3cc(Cl)cn3)c2)c2cnccc21
Problem: Please state the entry with greater IC50 among A and B . Mark your selection by writing its label.
Result: A

====

molecular target: TRKA (Homo sapiens (Human)); test: Isolated TRK enzyme assay (HTRF KinEASE-TK), PV3144 TrkA enzyme assay; conditions: arithmetic mean where more than one reading
VALUE_KIND: IC50 (nM)

In the examples that follow, each entry is paired with its recorded IC50.
CC(C)n1cc(C(=O)c2cncc(NC(=O)Cc3cccc(Cl)c3)c2)c2cnccc21 [Example 126] :: 28.6
O=C(Cc1cccc(OC(F)(F)F)c1)Nc1cc(C(=O)c2cn(C3COC3)c3ccncc23)ccn1 [Example 194] :: 13.8
CC(C)n1cc(C(=O)c2ccnc(NC(=O)Cc3cnccn3)c2)c2cnccc21 [Example 110] :: 3330

(A) CC(C)n1cc(C(=O)c2cncc(NC(=O)Cc3ccc(C#N)cn3)c2)c2cnccc21 [Example 139]
(B) CC(C)n1cc(C(=O)c2cncc(NC(=O)Cc3cn(C)cn3)c2)c2cnccc21 [Example 41]
Problem: Param metric = IC50; output whichever of A , B has the minimum value. Identify your selection by its label.
Result: A
(A: 100 nM, B: 3330 nM)

(P) Cc1cc(C(F)(F)F)nn1CC(=O)Nc1cncc(C(=O)c2cn(C(C)CO)c3c(F)cncc23)c1 (single isomer, unassigned) [Example 216]
(Q) CC(C)(CO)n1cc(C(=O)c2cc(NC(=O)Cc3ccc(C#N)cc3)ccn2)c2cnccc21 [Example 9]
Problem: Returns the identifier with the smallest measured IC50 among P and Q . Could you answer with the label of the item you picked?
Result: P
(P: 20.4 nM, Q: 97.8 nM)

====

molecular target: TRKA (Homo sapiens (Human), UniProt P04629); test: Isolated TRK enzyme assay (HTRF KinEASE-TK), PV3144 TrkA enzyme assay; conditions: arithmetic mean where more than one reading
Sequence (P04629 441-796): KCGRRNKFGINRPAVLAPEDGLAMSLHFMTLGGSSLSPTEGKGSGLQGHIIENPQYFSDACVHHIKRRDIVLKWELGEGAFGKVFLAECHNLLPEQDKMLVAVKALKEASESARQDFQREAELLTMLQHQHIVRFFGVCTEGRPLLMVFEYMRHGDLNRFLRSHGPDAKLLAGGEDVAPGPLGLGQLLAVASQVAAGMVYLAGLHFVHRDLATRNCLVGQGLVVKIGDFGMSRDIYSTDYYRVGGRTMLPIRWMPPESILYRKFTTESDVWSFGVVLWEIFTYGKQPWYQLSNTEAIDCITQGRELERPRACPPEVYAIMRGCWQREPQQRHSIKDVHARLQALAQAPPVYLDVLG
pIC50: −log10 of the molar value.
VALUE_KIND: pIC50

Observe how each entry below is paired with its result.
CC(CO)n1cc(C(=O)c2cncc(NC(=O)Cc3ccc(F)cn3)c2)c2cncc(F)c21 (single isomer, unassigned) [Example 212] :: 6.32
CC(CO)n1cc(C(=O)c2cncc(NC(=O)Cn3cc(C4CC4)nn3)c2)c2cnccc21 (single isomer, unassigned) [Example 76] :: 6.92
Cc1cc(C(F)(F)F)nn1CC(=O)Nc1ccnc(C(=O)c2cn(C(C)C)c3ccncc23)c1 :: 7.97
Cc1ccnn1CC(=O)Nc1cc(C(=O)c2cn(CCO)c3ccncc23)ccn1 :: 5.62
CC(CO)n1cc(C(=O)c2cc(NC(=O)Cc3ccc(Cl)cn3)ccn2)c2cnccc21 (single isomer, unassigned) [Example 17] :: 6.97
COCCn1nc(C(C)(C)C)nc1CC(=O)Nc1cncc(C(=O)c2cn(C(C)C)c3ccncc23)c1 :: 6.27

(a) Cc1cc(C)n(CC(=O)Nc2cncc(C(=O)c3cn(C(C)C)c4ccncc34)c2)n1
(b) CC(C)(CO)n1cc(C(=O)c2cncc(NC(=O)Cc3ccc(F)cn3)c2)c2cncc(F)c21
Problem: Param metric = pIC50; output whichever of a , b has the minimum value. Response format: the label of the selected entry.
Result: a

====

biological target: TRKA (Homo sapiens (Human), UniProt P04629); test: Isolated TRK enzyme assay (HTRF KinEASE-TK), PV3144 TrkA enzyme assay; conditions: arithmetic mean where more than one reading
VALUE_KIND: IC50 (nM)

Example entries and their recorded answers appear below.
CC(CO)n1cc(C(=O)c2cncc(NC(=O)Cc3ccc(C(F)(F)F)cc3)c2)c2cnccc21 (single isomer, unassigned) [Example 35] :: 87.9
CC(C)n1cc(C(=O)c2cncc(NC(=O)Cc3ccc(Cl)cc3)c2)c2cnccc21 [Example 116] :: 11.3
O=C(Cc1ccccc1OC(F)(F)F)Nc1cc(C(=O)c2cn(CCO)c3ccncc23)ccn1 [Example 143] :: 986

(I) COc1cccc(CC(=O)Nc2cc(C(=O)c3cn(C(C)C)c4ccncc34)ccn2)c1 [Example 108]
(II) Cn1nc(C(C)(C)C)nc1CC(=O)Nc1cc(C(=O)c2cn(CCO)c3ccncc23)ccn1 [Example 154]
(III) O=C(Cc1ccc(F)cc1F)Nc1cc(C(=O)c2cn(CCO)c3ccncc23)ccn1 [Example 145]
(IV) CC(CO)n1cc(C(=O)c2cncc(NC(=O)Cn3ccc(C(F)(F)F)n3)c2)c2cnccc21 (centres unmarked) [Example 75]
(V) Cc1nc(C)c(CC(=O)Nc2cc(C(=O)c3cn(C(C)C)c4ccncc34)ccn2)s1 [Example 167]
Problem: Order by IC50, ascending. Reply format: the labels, ordered as requested.
Result: IV, V, III, I, II

====

biological target: UniProtKB P04629; test: Isolated TRK enzyme assay (HTRF KinEASE-TK), PV3144 TrkA enzyme assay; settings: arithmetic mean where more than one reading
pIC50: −log10 of the molar value.
VALUE_KIND: pIC50

Here's what some known entries look like.
CC(CO)n1cc(C(=O)c2cncc(NC(=O)Cc3ccc(C(F)(F)F)cc3)c2)c2cnccc21 (single isomer, unassigned) [Example 65] :: 7.43
CC(C)(CO)n1cc(C(=O)c2cncc(NC(=O)Cn3cc(C(F)(F)F)cn3)c2)c2cncc(F)c21 :: 8.27
Cc1nc(CC(=O)Nc2cc(C(=O)c3cn(C(C)C)c4ccncc34)ccn2)cs1 :: 6.99
CC(CO)n1cc(C(=O)c2cncc(NC(=O)Cc3cccc(C(F)(F)F)c3)c2)c2cnccc21 (single isomer, unassigned) [Example 34] :: 7.77
CC(C)n1cc(C(=O)c2cncc(NC(=O)Cn3ccc(C4CC4)n3)c2)c2cncc(F)c21 :: 7.71
Cc1cnn(CC(=O)Nc2cncc(C(=O)c3cn(C(C)C)c4ccncc34)c2)c1 :: 7.67
CC(CO)n1cc(C(=O)c2cncc(NC(=O)Cc3ccc(C#N)cc3)c2)c2cnccc21 (single isomer, unassigned) [Example 72] :: 6.90
O=C(Cc1coc(C2CC2)n1)Nc1cc(C(=O)c2cn(C3COC3)c3ccncc23)ccn1 :: 6.28
Cc1nc(C)n(CC(=O)Nc2cncc(C(=O)c3cn(C(C)C)c4ccncc34)c2)n1 :: 5.01
CC(C)n1cc(C(=O)c2ccnc(NC(=O)Cn3cnnn3)c2)c2cnccc21 :: 5.19

(A) CC(C)n1cc(C(=O)c2ccnc(NC(=O)Cc3ccc(F)cc3)c2)c2cnccc21
(B) Cc1nc(CC(=O)Nc2cc(C(=O)c3cn(C(C)C)c4ccncc34)ccn2)c(C)s1
Problem: Dear colleague, could you let me know whether A or B has the lower recorded pIC50? Thanks. Please identify the chosen entry by its label.
Result: B
(B: 7.25, A: 7.88)

(1) Cc1cc(C)n(CC(=O)Nc2cc(C(=O)c3cn(CCO)c4ccncc34)ccn2)n1
(2) CC(C)(CO)n1cc(C(=O)c2cncc(NC(=O)Cn3ccc(C4CC4)n3)c2)c2cncc(F)c21
Problem: Returns the identifier with the smallest measured pIC50 among 1 and 2 . Label of pick, please.
Result: 1
(1: 5.67, 2: 8.25)

====

target: TRKA (Homo sapiens (Human), UniProt P04629); test: Isolated TRK enzyme assay (HTRF KinEASE-TK), PV3144 TrkA enzyme assay; details: arithmetic mean where more than one reading
VALUE_KIND: IC50 (nM)

Some compounds with recorded IC50:
CC(C)n1cc(C(=O)c2cncc(NC(=O)Cn3cc(C4CC4)cn3)c2)c2cncc(F)c21 [Example 91] :: 15
N#Cc1ccc(CC(=O)Nc2cc(C(=O)c3cn(C4COC4)c4ccncc34)ccn2)cc1 [Example 195] :: 203
CC(CO)n1cc(C(=O)c2cncc(NC(=O)Cc3ccc(C#N)cc3)c2)c2cncc(F)c21 (single isomer, unassigned) [Example 217] :: 418
Cc1nc(CC(=O)Nc2cncc(C(=O)c3cn(C(C)C)c4ccncc34)c2)c(C2CC2)o1 [Example 24] :: 124
CC(C)n1cc(C(=O)c2cc(NC(=O)Cn3cc(C4CC4)nn3)ccn2)c2cnccc21 [Example 52] :: 137

(I) O=C(Cc1ccc(Cl)cc1)Nc1cc(C(=O)c2cn(CCO)c3ccncc23)ccn1 [Example 146]
(II) Cc1nonc1CC(=O)Nc1cncc(C(=O)c2cn(C(C)C)c3ccncc23)c1 [Example 40]
Problem: Could you please tell me which of these two has the higher IC50: I or II ? Give the label under which the chosen entry appears.
Result: II
(II: 1730 nM, I: 59.4 nM)
